molecular target: human LDH-M (LDH-M4) (Homo sapiens); construct: purchased Sigma; assay: Inhibition of human lactate dehydrogenase LDH-M (LDH-M4), NADH reduction of pyruvate; type: biochemical; settings: LDH-M vs LDH-H
Observable: selectivity for LDH-M compared to LDH-H

Which selectivity for LDH-M compared to LDH-H is reported for this molecule? CCCc1c(O)c(O)c(C(=O)O)c2cc(C)c(C)cc12 [Compound 21e]
190 fold
